Values compiled from patent US12383533B2.

- Tested on: A2780 cells
- Test Description: Cell Viability Assay (ATPlite 1step), A2780
- Assay type: cell-based
- Details: Homo sapiens; A2780, 20 uM compound, 72 hours; read-out: Cell Viability % inhibition A2780 (20 uM Cpd)
Measured Metric: percent inhibition of cell viability at 20 µM (%)
I only need the number, in %, no unit after it.

Cc1ncc(C(=O)Nc2ccc(-c3cc(N4CCN(C)CC4)cc(S(=O)(=O)C4CC4)c3)cn2)cn1 [Compound 49] | 59.5
Cc1ncc(C(=O)Nc2ccc(-c3cc(Cl)cc(N4CCN(C)CC4)c3)c(C)n2)cn1 [Compound 48] | 88.8
Cc1ncc(C(=O)Nc2ccc(-c3csc(C)c3)cn2)cn1 [Compound 62] | 89.9

Please turn your attention to the following entry.
Retrieve percent inhibition of cell viability at 20 µM measured for Cc1ncc(C(=O)Nc2ccc(-c3cccc(OCCN4CCN(C)CC4)c3)cn2)cn1 [Compound 38] and print it.
68.7
